Collected IC50 for human mPGES-1 (Homo sapiens, UniProt O14684) across several studies; compounds listed below.
The label is rule met for IC50 below 0.6 µM and rule not met for IC50 equal to or exceeding 0.6 µM.

Use the examples below as a reference point.
CO[C@](C)(C(=O)NCc1ccc(Cl)c(-c2nc(O)nc(-c3cccc(OC(F)(F)F)c3)n2)c1)C(F)(F)F
rule met
CC(C)(C(=O)NCc1ccc(Cl)c(-c2nc(O)nc(-c3cccc(OC(F)(F)F)c3)n2)c1)C(F)(F)F
rule met
CC(C)Oc1ccc(-n2c(C(=O)O)c(-c3cccnc3)c3cc(-c4ccc(C(F)(F)F)cc4)ccc32)cn1
rule not met
CCCCOc1ccc(-c2nc(O)nc(-c3c(C)cccc3C)n2)cc1
rule met
NS(=O)(=O)c1c(F)cccc1NS(=O)(=O)/C=C/c1ccc2ccccc2c1
rule not met

Asked: Identify whether the compound "CN(Cc1ccc(Cl)c(-c2nc(O)nc(-c3ccccc3)n2)c1)C(=O)C1(C(F)(F)F)CCCCC1" records IC50 below 0.6 µM.
Given back: rule met

Asked: Next entry: "COc1ccccc1/C=C/S(=O)(=O)Nc1cccc(F)c1S(N)(=O)=O"
Given back: rule not met

Asked: Quick one: "C/C(=C\c1ccc(Cl)cc1)S(=O)(=O)Nc1ccc(F)cc1S(N)(=O)=O"
Given back: rule not met
